Molecular target: lpWalK (370-624)
Construct: gene walK; catalytic region DHp + CA domains, residues 370-624, N-terminal His tag, pET-His, E. coli BL21(DE3); DHp homodimer
Test: ITC
Type: binding, Lactiplantibacillus plantarum
Conditions: 20 mM Tris-HCl pH 8.0, 5 mM MgCl2, 25 °C; fixed 1:1 model
I'd appreciate it if you could supply Kd values for the items below.
Answers are plain numbers, in µM.

CHEMICAL_STRUCTURE | Kd / µM
Nc1ncnc2c1ncn2[C@@H]1O[C@H](COP(=O)(O)OP(=O)(O)O)[C@@H](O)[C@H]1O | 1200

Attention now shifts to the item below.
Asked: Reported Kd for `Nc1ncnc2c1ncn2[C@@H]1O[C@H](COP(=O)(O)O)[C@@H](O)[C@H]1O` : what is it?
Given back: 1280

* * *

Molecular target: lpWalK (370-624)
Construct: gene walK; catalytic region DHp + CA domains, residues 370-624, N-terminal His tag, pET-His, E. coli BL21(DE3); DHp homodimer
Test: ITC
Assay type: binding, Lactiplantibacillus plantarum
Settings: 20 mM Tris-HCl pH 8.0, 5 mM MgCl2, 25 °C; fixed 1:1 model; gamma-phosphate not defined in the crystal
OUTCOME_MEASURE: Kd (µM)
Give bare numbers, in µM.

Asked: Reported Kd for `Nc1ncnc2c1ncn2[C@@H]1O[C@H](COP(=O)(O)OP(=O)(O)NP(=O)(O)O)[C@@H](O)[C@H]1O` : what is it?
Given back: 450
